// data source = ChEMBL document CHEMBL1145796

The entries below are paired with their reported Selectivity index.
Experiment: Selectivity index is changes in heart rate(cv dose) to the suppression of twitch response (ED95) in male Rhesus monkey
Type: functional, Cercopithecidae
Please give only the number in your answer, with no unit.

These solved cases illustrate the format of a correct answer.
COc1cc(C2c3c(cc(OC)c(OC)c3OC)CC[N@@+]2(C)CCCOC(=O)/C(Cl)=C/C(=O)OCCC[N@+]2(C)CCc3cc(OC)c(OC)c(OC)c3[C@H]2c2cc(OC)c(OC)c(OC)c2)cc(OC)c1OC.[Cl-].[Cl-] (some centres undefined) :: 1
COc1cc2c(cc1OC)C(c1cc(OC)c(OC)c(OC)c1)[N@+](C)(CCCOC(=O)/C(Cl)=C/C(=O)OCCC[N@+]1(C)CCc3cc(OC)c(OC)cc3[C@H]1c1cc(OC)c(OC)c(OC)c1)CC2.[Cl-].[Cl-] (some centres undefined) :: 3.6
COc1cc2c(cc1OC)[C@@H](c1cc(OC)c(OC)c(OC)c1)[N@+](C)(CCCOC(=O)CCCCCCC(=O)OCCC[N@+]1(C)CCc3cc(OC)c(OC)cc3[C@H]1Cc1cc(OC)c(OC)c(OC)c1)CC2.[Cl-].[Cl-] :: 47

input: For COc1cc2c(cc1OC)[C@H](c1cc(OC)c(OC)c(OC)c1)[N@@+](C)(CCCOC(=O)/C=C(\Cl)C(=O)OCCC[N@+]1(C)CCc3cc(OC)c(OC)cc3[C@H]1Cc1cc(OC)c(OC)c(OC)c1)CC2.[Cl-].[Cl-] (stereo in doubt; 24a) [GANTACURIUM CHLORIDE] , what is its reported Selectivity index?
output: 57

====

The entries below are paired with their reported ED95.
Test: Dose required for 95% suppression of the twitch response at the extensor digitorum in male Rhesus monkey.
Type: functional, Cercopithecidae
Conditions: Cercopithecidae; read-out: ED95

These solved cases illustrate the format of a correct answer.
COc1cc2c(cc1OC)[C@H](c1cc(OC)c(OC)c(OC)c1)[N@@+](C)(CCCOC(=O)/C=C(\F)C(=O)OCCC[N@+]1(C)CCc3cc(OC)c(OC)cc3[C@H]1Cc1cc(OC)c(OC)c(OC)c1)CC2.[Cl-].[Cl-] :: 0.137 mg/kg
COc1cc2c(cc1OC)[C@@H](c1cc(OC)c(OC)c(OC)c1)[N@+](C)(CCCOC(=O)/C=C(\Cl)C(=O)OCCC[N@+]1(C)CCc3cc(OC)c(OC)c(OC)c3[C@H]1Cc1cc(OC)c(OC)c(OC)c1)CC2.[Cl-].[Cl-] :: 0.053 mg/kg
COc1cc2c(cc1OC)[C@H](c1cc(OC)c(OC)c(OC)c1)[N@@+](C)(CCCOC(=O)CCCCCCCCC(=O)OCCC[N@+]1(C)CCc3cc(OC)c(OC)cc3[C@H]1Cc1cc(OC)c(OC)c(OC)c1)CC2.[Cl-].[Cl-] :: 0.2 mg/kg
COc1cc2c(cc1OC)[C@H](c1cc(OC)c(OC)c(OC)c1)[N@@+](C)(CCCOC(=O)CCCCC(=O)OCCC[N@+]1(C)CCc3cc(OC)c(OC)cc3[C@H]1Cc1cc(OC)c(OC)c(OC)c1)CC2.[Cl-].[Cl-] :: 0.136 mg/kg
COc1cc2c(cc1OC)C(c1cc(OC)c(OC)c(OC)c1)[N@+](C)(CCCOC(=O)/C(Cl)=C/C(=O)OCCC[N@+]1(C)CCc3cc(OC)c(OC)cc3[C@H]1c1cc(OC)c(OC)c(OC)c1)CC2.[Cl-].[Cl-] (some centres undefined) :: 1.79 mg/kg

input: For COc1cc(CC2c3cc4c(cc3CC[N@@+]2(C)CCCOC(=O)/C(Cl)=C/C(=O)OCCC[N@+]2(C)CCc3cc5c(cc3[C@H]2Cc2cc(OC)c(OC)c(OC)c2)OCO5)OCO4)cc(OC)c1OC.[Cl-].[Cl-] (some centres undefined) , what is its reported ED95?
output: 0.62 mg/kg

input: For COc1cc2c(cc1OC)[C@H](c1cc(OC)c(OC)c(OC)c1)N(CCCOC(=O)/C=C(\Cl)C(=O)OCCC[N@+]1(C)CCc3cc(OC)c(OC)cc3[C@H]1Cc1cc(OC)c(OC)c(OC)c1)CC2.Cl.[Cl-] , what is its reported ED95?
output: 0.87 mg/kg

input: For COc1cc2c(cc1OC)[C@H](c1cc(OC)c(OC)c(OC)c1)[N@@+](C)(CCCOC(=O)/C=C(\F)C(=O)OCCC[N@+]1(C)CCc3cc(OC)c(OC)c(OC)c3[C@H]1Cc1cc(OC)c(OC)c(OC)c1)CC2.[Cl-].[Cl-] , what is its reported ED95?
output: 0.077 mg/kg

input: For COc1cc2c(cc1OC)C(c1cc(OC)c(OC)c(OC)c1)[N@+](C)(CCCOC(=O)/C=C/C(=O)OCCC[N@+]1(C)CCc3cc(OC)c(OC)cc3[C@H]1c1cc(OC)c(OC)c(OC)c1)CC2.[Cl-].[Cl-] (some centres undefined) , what is its reported ED95?
output: 1.55 mg/kg

====

Test: Time from injection to 95% recovery of the twitch response at the ED95 dose in male Rhesus monkey.
Type: functional, Cercopithecidae
I would appreciate it if you labelled entries 1 when Duration is 5 min or higher, otherwise -1.

COc1cc2c(cc1OC)[C@H](c1cc(OC)c(OC)c(OC)c1)[N@@+](C)(CCCOC(=O)CC(F)(F)C(=O)OCCC[N@+]1(C)CCc3cc(OC)c(OC)cc3[C@H]1Cc1cc(OC)c(OC)c(OC)c1)CC2.[Cl-].[Cl-] :: 1
COc1cc2c(cc1OC)[C@@H](c1cc(OC)c(OC)c(OC)c1)[N@+](C)(CCCOC(=O)/C=C(\Cl)C(=O)OCCC[N@+]1(C)CCc3cc(OC)c(OC)c(OC)c3[C@H]1Cc1cc(OC)c(OC)c(OC)c1)CC2 :: 1
COc1cc(C2c3c(cc(OC)c(OC)c3OC)CC[N@@+]2(C)CCCOC(=O)/C(Cl)=C/C(=O)OCCC[N@+]2(C)CCc3cc(OC)c(OC)c(OC)c3[C@H]2c2cc(OC)c(OC)c(OC)c2)cc(OC)c1OC.[Cl-].[Cl-] (some centres undefined) :: -1
COc1cc2c(cc1OC)[C@@H](c1cc(OC)c(OC)c(OC)c1)[N@+](C)(CCCOC(=O)/C(Cl)=C/C(=O)OCCC[N@+]1(C)CCc3cc(OC)c(OC)cc3[C@H]1Cc1cc(OC)c(OC)c(OC)c1)CC2.[Cl-].[Cl-] :: -1

Next molecule, please.
input: Record COc1cc2c(cc1OC)[C@H](c1cc(OC)c(OC)c(OC)c1)[N@@+](C)(CCCOC(=O)/C=C(\Cl)C(=O)OCCC[N@+]13CCc4cc(OC)c(OC)c(OC)c4[C@H]1Cc1cc(OC)c(OC)c(OC)c1C3)CC2.[Cl-].[Cl-] ; criterion: Duration no lower than 5 min. Met?
output: -1

====

Experiment: Time from injection to 95% recovery of the twitch response at the ED95 dose in male Rhesus monkey.
Type: functional, Cercopithecidae
Please use the following Duration ranges when assigning a class: class A (below 5 min), class B (5 min to below 10 min), class C (10 min or more)

A selection of reference data follows.
COc1cc2c(cc1OC)[C@H](c1cc(OC)c(OC)c(OC)c1)[N@@+](C)(CCCOC(=O)CCC(F)(F)C(=O)OCCC[N@+]1(C)CCc3cc(OC)c(OC)cc3[C@H]1Cc1cc(OC)c(OC)c(OC)c1)CC2.[Cl-].[Cl-] :: class B
COc1cc2c(cc1OC)[C@H](c1cc(OC)c(OC)c(OC)c1)[N@@+](C)(CCCOC(=O)/C=C(\F)C(=O)OCCC[N@+]1(C)CCc3cc(OC)c(OC)cc3[C@H]1Cc1cc(OC)c(OC)c(OC)c1)CC2.[Cl-].[Cl-] :: class A
COc1ccc([C@H]2c3cc(OC)c(OC)cc3CC[N@+]2(C)CCCOC(=O)/C=C(\Cl)C(=O)OCCC[N@+]2(C)CCc3cc(OC)c(OC)cc3[C@H]2Cc2cc(OC)c(OC)c(OC)c2)cc1.[Cl-].[Cl-] :: class B
COc1cc2c(cc1OC)[C@H](c1cc(OC)c(OC)c(OC)c1)[N@@+](C)(CCCOC(=O)CCCCCCCC(=O)OCCC[N@+]1(C)CCc3cc(OC)c(OC)cc3[C@H]1Cc1cc(OC)c(OC)c(OC)c1)CC2.[Cl-].[Cl-] :: class B
COc1cc2c(cc1OC)[C@H](c1cc(OC)c(OC)c(OC)c1)[N@@+](C)(CCCOC(=O)C[C@H](F)C(=O)OCCC[N@+]1(C)CCc3cc(OC)c(OC)cc3[C@H]1Cc1cc(OC)c(OC)c(OC)c1)CC2.[Cl-].[Cl-] :: class C

input: Entry COc1cc(CC2c3cc4c(cc3CC[N@@+]2(C)CCCOC(=O)/C(Cl)=C/C(=O)OCCC[N@+]2(C)CCc3cc5c(cc3[C@H]2Cc2cc(OC)c(OC)c(OC)c2)OCO5)OCO4)cc(OC)c1OC.[Cl-].[Cl-] (some centres not stated) belongs to which category?
output: class A

input: Entry COc1cc2c(cc1OC)[C@H](c1cc(OC)c(OC)c(OC)c1)[N@@+](C)(CCCOC(=O)CCCCC(=O)OCCC[N@+]1(C)CCc3cc(OC)c(OC)cc3[C@H]1Cc1cc(OC)c(OC)c(OC)c1)CC2.[Cl-].[Cl-] belongs to which category?
output: class C

input: Entry COc1cc2c(cc1OC)[C@H](c1ccc(F)c(F)c1)[N@@+](C)(CCCOC(=O)/C=C(\Cl)C(=O)OCCC[N@+]1(C)CCc3cc(OC)c(OC)cc3[C@H]1Cc1cc(OC)c(OC)c(OC)c1)CC2.[Cl-].[Cl-] belongs to which category?
output: class A

input: Entry COc1cc2c(cc1OC)[C@H](c1cc(OC)c(OC)c(OC)c1)[N@@+](C)(CCCOC(=O)/C(Cl)=C/C(=O)OCCC[N@+]1(C)CCc3cc(OC)c(OC)c(OC)c3[C@H]1Cc1cc(OC)c(OC)c(OC)c1)CC2.COc1cc2c(cc1OC)[C@H](c1cc(OC)c(OC)c(OC)c1)[N@@+](C)(CCCOC(=O)/C=C(\Cl)C(=O)OCCC[N@+]1(C)CCc3cc(OC)c(OC)c(OC)c3[C@H]1Cc1cc(OC)c(OC)c(OC)c1)CC2.[Cl-].[Cl-].[Cl-].[Cl-] belongs to which category?
output: class B
